biological target: HIV Env, isolate X1193_C1 (HIV); assay: cell-based or functional assay
property-label: IC80 (µg/ml) with constrains
Note: state the figure and append the unit.

stdin: Input ePGDM5 (antibody, V domains shown) VH: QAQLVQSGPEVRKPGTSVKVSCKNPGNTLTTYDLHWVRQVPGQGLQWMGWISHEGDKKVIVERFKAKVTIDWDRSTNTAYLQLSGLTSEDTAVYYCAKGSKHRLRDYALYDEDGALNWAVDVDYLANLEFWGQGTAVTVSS VL: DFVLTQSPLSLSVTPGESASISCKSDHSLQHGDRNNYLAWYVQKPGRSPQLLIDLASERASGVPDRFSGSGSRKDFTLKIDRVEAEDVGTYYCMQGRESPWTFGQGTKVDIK , output reported IC80 (µg/ml) with constrains.
stdout: 0.156 µg/mL
